Taken from patent US20120077731A1.

Target: T1, Human soluble IL-6R (human, UniProt P08887 20-358)
T1 construct: Soluble recombinant form; biotinylated in some assays; also called hIL-6R; human IL-6R
T1 sequence (looked up): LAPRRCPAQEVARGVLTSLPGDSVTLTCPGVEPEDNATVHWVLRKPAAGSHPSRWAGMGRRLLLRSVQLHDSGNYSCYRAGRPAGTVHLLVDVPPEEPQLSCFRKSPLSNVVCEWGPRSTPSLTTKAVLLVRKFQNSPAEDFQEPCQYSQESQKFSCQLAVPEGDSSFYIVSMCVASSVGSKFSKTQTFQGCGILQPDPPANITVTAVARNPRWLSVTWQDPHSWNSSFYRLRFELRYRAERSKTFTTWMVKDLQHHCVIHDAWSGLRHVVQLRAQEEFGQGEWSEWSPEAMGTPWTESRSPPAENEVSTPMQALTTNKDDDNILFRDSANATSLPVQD
Test: summary table C-13 of Nanobody characteristics, Kd on IL-6R
Lab note: compare Kd with 3 nM, writing criterion met if less and criterion not met if equal or more.

Previously resolved entries follow.
{"binder": "IL6R12 (VHH, also called PMP35F4; not shown: C-terminal c-myc and (His)6 tags) VHH: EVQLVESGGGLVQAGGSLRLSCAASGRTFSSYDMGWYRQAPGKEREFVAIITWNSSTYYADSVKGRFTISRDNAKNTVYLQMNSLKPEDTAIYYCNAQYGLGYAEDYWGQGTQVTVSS", "group": "criterion met"}
{"binder": "IL6R11 (VHH, also called PMP35E11; not shown: C-terminal c-myc and (His)6 tags) VHH: EVQLVESGGGLVQAGGSLRLSCAASGFTFDDYAIGWFRQAPGKEHEGVSCISSSDGSTYYADSVKGRFTISSDNAKNTVYLQMNSLKPEDTAVYYCAAERDVPARSLCGSYYWYDYRGQGTQVTVSS", "group": "criterion met"}
{"binder": "IL6R14 (VHH, also called PMP40H5; not shown: C-terminal c-myc and (His)6 tags) VHH: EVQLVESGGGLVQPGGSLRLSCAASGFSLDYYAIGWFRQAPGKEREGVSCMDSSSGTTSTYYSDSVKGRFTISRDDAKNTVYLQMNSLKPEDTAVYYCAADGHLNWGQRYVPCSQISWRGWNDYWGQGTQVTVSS", "group": "criterion met"}
{"binder": "IL6R04 (VHH, also called PMP32C9; not shown: C-terminal c-myc and (His)6 tags) VHH: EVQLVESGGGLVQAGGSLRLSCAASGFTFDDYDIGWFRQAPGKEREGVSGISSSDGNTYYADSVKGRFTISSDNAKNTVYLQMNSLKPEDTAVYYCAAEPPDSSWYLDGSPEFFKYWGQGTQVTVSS", "group": "criterion met"}
{"binder": "IL6R02 (VHH, also called PMP30C11; not shown: C-terminal c-myc and (His)6 tags) VHH: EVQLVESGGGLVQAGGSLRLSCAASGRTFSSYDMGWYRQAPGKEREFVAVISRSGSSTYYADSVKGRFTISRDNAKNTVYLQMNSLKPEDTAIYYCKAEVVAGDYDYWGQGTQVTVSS", "group": "criterion not met"}
{"binder": "IL6R10 (VHH, also called PMP35C10; not shown: C-terminal c-myc and (His)6 tags) VHH: EVQLVESGGGLVQAGGSLRLSCAASGRTFSSYDMGWYRQAPGKEREFVAVIHWSSGSTYYADPVKGRFTISRDNAKNTVYLQMNSLKPEDTAIYYCNAFLPGPEGFHDYWGQGTQVTVSS", "group": "criterion met"}

Qu. Quick check: does IL6R13 (VHH, also called PMP35H4; not shown: C-terminal c-myc and (His)6 tags) VHH: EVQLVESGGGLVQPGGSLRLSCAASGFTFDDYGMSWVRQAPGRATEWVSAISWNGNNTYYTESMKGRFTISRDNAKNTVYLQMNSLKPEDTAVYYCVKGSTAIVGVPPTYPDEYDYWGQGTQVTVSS have Kd under 3 nM?
Ans. criterion met

Qu. Quick check: does IL6R05 (VHH, also called PMP32E10; not shown: C-terminal c-myc and (His)6 tags) VHH: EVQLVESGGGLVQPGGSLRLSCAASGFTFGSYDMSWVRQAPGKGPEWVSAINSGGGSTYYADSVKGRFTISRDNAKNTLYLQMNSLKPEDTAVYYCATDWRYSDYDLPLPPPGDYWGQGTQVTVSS have Kd under 3 nM?
Ans. criterion not met

Qu. Quick check: does IL6R06 (VHH, also called PMP32E2; not shown: C-terminal c-myc and (His)6 tags) VHH: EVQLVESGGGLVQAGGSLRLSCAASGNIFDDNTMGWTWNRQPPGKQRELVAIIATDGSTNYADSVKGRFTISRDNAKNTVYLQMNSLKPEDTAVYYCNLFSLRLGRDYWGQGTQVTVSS have Kd under 3 nM?
Ans. criterion not met
